- METHOD NOTES: Toxicity in middle cerebral artery occlusion-induced brain infarction C57BL/6 mouse model assessed as survival rate at 10 mg/kg, ip and measured after 24 hrs
- Assay type: organism-based
- CONDITIONS USED: in vivo
PROPERTY LABEL: survival at 24 h (%)
Field format: number, assumed %, no unit text.

Task: Which survival at 24 h value is on record for "CCCCCCCCN(C)[C@H]1CC[C@@H](c2ccc(Cl)c(Cl)c2)c2ccccc21" ?
Output: 100

---

- System: Cortical neurone
- METHOD NOTES: Cytotoxicity against primary C57BL/6J E14-17 mouse Cortical neuron assessed as decrease in cell viability at 1 uM incubated for 24 hrs by CCK-8 assay relative to control
- Type: toxicity, cell-based
PROPERTY LABEL: Activity (%)
Answer with a number only, understood to be in %.

CC(=O)N[C@@H]1CC[C@@H](c2ccc(Cl)c(Cl)c2)c2ccccc21 (relative stereo)
102.6

Task: Which Activity value is on record for Clc1ccc([C@@H]2CC[C@@H](NC3CC3)c3ccccc32)cc1Cl (relative stereo) ?
Output: 100.03

Task: Please report the recorded Activity for CC(C)(C)OC(=O)N1CCN(CCN[C@@H]2CC[C@@H](c3ccc(Cl)c(Cl)c3)c3ccccc32)CC1 (relative stereo) .
Output: 100.27

Task: Bench note: what Activity did CCCCCC(C)N[C@@H]1CC[C@@H](c2ccc(Cl)c(Cl)c2)c2ccccc21 (relative stereo) show?
Output: 89.48

Task: I would be grateful if you could share the reported Activity for "Clc1ccc([C@@H]2CC[C@@H](NCCN3CCNCC3)c3ccccc32)cc1Cl" .
Output: 90.76

---

- System: Cortical neurone
- METHOD NOTES: Cytotoxicity against primary C57BL/6J E14-17 mouse Cortical neuron assessed as decrease in cell viability at 10 uM incubated for 24 hrs by CCK-8 assay relative to control
- Format: toxicity, cell-based
PROPERTY LABEL: Activity (%)
Please reply with the bare figure in % and do not write the unit itself.

Clc1ccc([C@@H]2CC[C@@H](NCCc3c[nH]c4ccccc34)c3ccccc32)cc1Cl (relative stereo)
96.14
Clc1ccc([C@@H]2CC[C@@H](NC3CCCCC3)c3ccccc32)cc1Cl (relative stereo)
102.77
FC(F)(F)c1cccc(CN[C@@H]2CC[C@@H](c3ccc(Cl)c(Cl)c3)c3ccccc32)c1 (relative stereo)
85.87
Clc1ccc([C@@H]2CC[C@@H](NCc3ccc4c(c3)OCO4)c3ccccc32)cc1Cl (relative stereo)
95.94
CC(C)(C)OC(=O)N1CCN(CCN[C@@H]2CC[C@@H](c3ccc(Cl)c(Cl)c3)c3ccccc32)CC1 (relative stereo)
93.92

Task: Checklist item: Activity tested on Cortical neurone, entry NCCCCCCN[C@@H]1CC[C@@H](c2ccc(Cl)c(Cl)c2)c2ccccc21 (relative stereo) , value?
Output: 22.62

Task: Hello, I am looking for reported Activity with Cortical neurone for CCCCN[C@@H]1CC[C@@H](c2ccc(Cl)c(Cl)c2)c2ccccc21 (relative stereo) . Could you help?
Output: 94.94

Task: # get_value(readout= Activity, system= Cortical neurone) for CN[C@H]1CC[C@@H](c2ccc(Cl)c(Cl)c2)c2ccccc21 [SERTRALINE]
Output: 94.25

---

- Tested on: Cortical neurone
- METHOD NOTES: Cytotoxicity against primary C57BL/6J E14-17 mouse Cortical neuron assessed as decrease in cell viability at 10 uM incubated for 24 hrs by CCK-8 assay relative to control
- Format: toxicity, cell-based
PROPERTY LABEL: Activity (%)
Quick reminder: number only, in %, skip the unit.

Completed entries (count: 3):
Clc1ccc([C@@H]2CC[C@@H](NCCCCc3ccccc3)c3ccccc32)cc1Cl (relative stereo)
94.37
COc1ccc(CN[C@@H]2CC[C@@H](c3ccc(Cl)c(Cl)c3)c3ccccc32)cc1 (relative stereo)
85.78
NCCCCN[C@@H]1CC[C@@H](c2ccc(Cl)c(Cl)c2)c2ccccc21 (relative stereo)
22.9

In the following, a different molecule is considered.
Task: Looking for the measured Activity of Cc1cccc(CN[C@@H]2CC[C@@H](c3ccc(Cl)c(Cl)c3)c3ccccc32)c1 (relative stereo) , can you help?
Output: 102.54
